Test system: Digitaria sanguinalis
Experiment: Herbicidal activity against Digitaria sanguinalis (hairy crabgrass) assessed as inhibition of fresh weed plant weight at 187.5 g/ha using pre-emergence treatment protocol
Format: functional
Classify by measured inhibition at 187.5 g/ha: 1.0 if it is equal to or exceeds 10%, 0.0 if it is smaller.

Q. Does the compound C=CCN1C(=O)COc2cc(F)c(-n3nnc4nn(CC=C)cc4c3=O)cc21 have recorded inhibition at 187.5 g/ha that is 10% or more?
A. 1.0

====

Tested on: Brassica rapa subsp. oleifera
Test: Herbicidal activity against Brassica rapa subsp. oleifera assessed as inhibition of fresh weed plant weight at 1500 g/ha using pre-emergence treatment protocol
Format: functional
Classify by measured inhibition at 1500 g/ha: fulfilled if it is equal to or exceeds 7%, not fulfilled if it is smaller.

Please review the entries below; each comes with its answer.
C=CCOc1cc(-n2nnc3c(cnn3C)c2=O)c(F)cc1Cl
fulfilled
C=CCOc1cc(-n2nnc3c(c(C)nn3C)c2=O)c(F)cc1Cl
fulfilled
Cn1ncc2c(=O)n(-c3cc(OC/C=C/Cl)c(Cl)cc3F)nnc21
not fulfilled

Q. Does the molecule CCOC(=O)Oc1cc(-n2nnc3c(cnn3C)c2=O)c(F)cc1Cl have recorded inhibition at 1500 g/ha that is 7% or more?
A. not fulfilled

Q. Does the molecule Cn1ncc2c(=O)n(-c3cc(OCC#N)c(Cl)cc3F)nnc21 have recorded inhibition at 1500 g/ha that is 7% or more?
A. not fulfilled

Q. Does the molecule C=CCN1C(=O)COc2cc(F)c(-n3nnc4c(cnn4C)c3=O)cc21 have recorded inhibition at 1500 g/ha that is 7% or more?
A. fulfilled

Q. Does the molecule C#CCN1C(=O)COc2cc(F)c(-n3nnc4c(cnn4CC=C)c3=O)cc21 have recorded inhibition at 1500 g/ha that is 7% or more?
A. fulfilled

Q. Does the molecule CCCCOc1cc(-n2nnc3c(cnn3C)c2=O)c(F)cc1Cl have recorded inhibition at 1500 g/ha that is 7% or more?
A. not fulfilled

Q. Does the molecule C#CCOc1cc(-n2nnc3c(cnn3CC=C)c2=O)c(F)cc1Cl have recorded inhibition at 1500 g/ha that is 7% or more?
A. fulfilled

====

Tested on: Brassica rapa subsp. oleifera
Experiment: Herbicidal activity against Brassica rapa subsp. oleifera assessed as inhibition of fresh weed plant weight at 1500 g/ha using pre-emergence treatment protocol
Type: functional
Consider the following compounds and their measured inhibition at 1500 g/ha readings.
Please state the figure in %; there is no need to write the unit.

These recorded examples may help you get a feel for the data.
COCCOCOc1cc(-n2nnc3c(cnn3C)c2=O)c(F)cc1Cl
0
C=CCN1C(=O)COc2cc(F)c(-n3nnc4c(cnn4CC=C)c3=O)cc21
100

Q. // query inhibition at 1500 g/ha value for entry C=CCOc1cc(-n2nnc3c(cnn3CC=C)c2=O)c(F)cc1Cl
A. 30.5

Q. // query inhibition at 1500 g/ha value for entry CCOc1cc(-n2nnc3c(cnn3C)c2=O)c(F)cc1Cl
A. 29.8

Q. // query inhibition at 1500 g/ha value for entry CCCN1C(=O)COc2cc(F)c(-n3nnc4c(cnn4C)c3=O)cc21
A. 100

Q. // query inhibition at 1500 g/ha value for entry COc1cc(-n2nnc3c(cnn3C)c2=O)c(F)cc1Cl
A. 0

Just for reference, ChEMBL document CHEMBL3044834 is where these values come from.
